protocolDescription: Oral bioavailability in Sprague-Dawley rat at 8.6 mg/kg
Assay type: ADME, organism-based
condition: in vivo
observationType: bioavailability (%)
Reply with just the number (in %).

Indicate its recorded bioavailability; the compound in question is Cc1cccc2c1c(=O)n(C[C@H]1CC[C@H](C(=O)O)CC1)c(=O)n2Cc1cccc(C(F)(F)F)c1C#N 133
